protocol text: LogD7.4 determination of xenopeptides (octanol-water)
Assay type: physicochemical
test parameters: shake-flask n-octanol/HEPES buffer (20 mM, pH 7.4); 10 μL of 10 mg/mL xenopeptide in water + 90 μL buffer + 100 μL n-octanol; shaken 1400 rpm 24 h; centrifuged, 4 °C 1 h; HPLC, extinction 280 nm; log(Aoctanol/Awater); triplicate
quantity: logD

CCCCC/C=C\C/C=C\CCCCCCCC(=O)NCCCC[C@H](NC(=O)CCCCCCC/C=C\C/C=C\CCCCC)C(=O)NCCCC[C@H](NC(=O)CCCC(=O)NCCCNCCNCCCNC(=O)[C@H](Cc1ccc(O)cc1)NC(=O)[C@H](Cc1ccc(O)cc1)NC(=O)[C@H](Cc1ccc(O)cc1)NC(=O)[C@@H](N)CCCCN=[N+]=[N-])C(=O)NCCCNCCNCCCNC(=O)CCCC(=O)N[C@@H](Cc1ccc(O)cc1)C(=O)N[C@@H](Cc1ccc(O)cc1)C(=O)N[C@@H](Cc1ccc(O)cc1)C(=O)O = -0.33

Now for a further compound.
Entry "CCCCC/C=C\C/C=C\CCCCCCCC(=O)NCCCC[C@H](NC(=O)CCCCCCC/C=C\C/C=C\CCCCC)C(=O)NCCCC[C@H](NC(=O)CNCC(=O)NCCNCCNCCNCCNC(=O)[C@H](Cc1ccc(O)cc1)NC(=O)[C@H](Cc1ccc(O)cc1)NC(=O)[C@H](Cc1ccc(O)cc1)NC(=O)[C@@H](N)CCCCN=[N+]=[N-])C(=O)NCCNCCNCCNCCNC(=O)CNCC(=O)N[C@@H](Cc1ccc(O)cc1)C(=O)N[C@@H](Cc1ccc(O)cc1)C(=O)N[C@@H](Cc1ccc(O)cc1)C(=O)O" , logD reported as -1.11
